Molecular target: full-length human KDR on cells (human, UniProt P35968 20-1356)
Sequence (P35968 20-1356): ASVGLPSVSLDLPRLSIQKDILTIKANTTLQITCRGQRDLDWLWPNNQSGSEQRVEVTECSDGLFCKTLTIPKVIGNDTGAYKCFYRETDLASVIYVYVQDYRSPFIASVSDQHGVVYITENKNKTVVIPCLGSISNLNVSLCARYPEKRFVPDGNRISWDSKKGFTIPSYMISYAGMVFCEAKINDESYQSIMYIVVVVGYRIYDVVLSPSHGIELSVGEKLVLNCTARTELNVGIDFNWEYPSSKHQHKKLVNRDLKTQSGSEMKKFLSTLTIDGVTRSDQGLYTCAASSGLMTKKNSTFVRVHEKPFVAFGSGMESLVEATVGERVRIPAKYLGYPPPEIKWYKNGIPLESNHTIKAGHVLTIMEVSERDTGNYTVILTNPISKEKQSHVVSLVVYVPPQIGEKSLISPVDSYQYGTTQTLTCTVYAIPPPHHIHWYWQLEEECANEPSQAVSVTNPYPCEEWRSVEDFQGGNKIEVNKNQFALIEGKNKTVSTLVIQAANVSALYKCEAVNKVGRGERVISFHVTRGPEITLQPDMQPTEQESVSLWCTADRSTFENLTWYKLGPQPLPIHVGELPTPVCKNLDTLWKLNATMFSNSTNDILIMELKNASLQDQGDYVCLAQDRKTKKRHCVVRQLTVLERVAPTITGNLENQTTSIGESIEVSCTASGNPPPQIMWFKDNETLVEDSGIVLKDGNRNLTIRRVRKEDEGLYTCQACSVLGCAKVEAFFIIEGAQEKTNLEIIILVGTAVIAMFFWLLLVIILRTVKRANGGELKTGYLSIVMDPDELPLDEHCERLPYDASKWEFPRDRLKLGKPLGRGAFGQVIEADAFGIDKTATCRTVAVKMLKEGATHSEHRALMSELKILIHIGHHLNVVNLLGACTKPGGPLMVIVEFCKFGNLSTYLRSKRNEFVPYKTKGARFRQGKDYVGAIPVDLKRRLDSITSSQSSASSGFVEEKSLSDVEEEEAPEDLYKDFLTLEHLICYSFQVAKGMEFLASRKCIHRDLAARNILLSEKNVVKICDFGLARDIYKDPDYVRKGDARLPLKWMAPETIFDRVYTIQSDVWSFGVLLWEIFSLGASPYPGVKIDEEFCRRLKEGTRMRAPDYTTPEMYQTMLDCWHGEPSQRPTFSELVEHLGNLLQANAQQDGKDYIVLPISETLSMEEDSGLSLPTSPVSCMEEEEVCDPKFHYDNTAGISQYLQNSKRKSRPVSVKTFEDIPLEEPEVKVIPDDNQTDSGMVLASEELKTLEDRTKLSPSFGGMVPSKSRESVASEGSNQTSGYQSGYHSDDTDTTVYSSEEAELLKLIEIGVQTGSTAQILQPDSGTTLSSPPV
Test: cell-based or functional assay
quantity_kind: Inhibition of VEGF-induced proliferation of HUVEC cells (IC50, nM)
# unit: nM | format: bare number

M5FL (designed binder, extension and tag left out) VSDVPRDLEVVAATPTSLLISWRHPHFPTRYYRITYGETGGNSPVQEFTVPLQPPLATISGLKPGVDYTITGYAVTKERNGRELFTPISINYRT : 8.5

Could you now consider this next binder?
Qu. Which Inhibition of VEGF-induced proliferation of HUVEC cells (IC50, nM) reading was recorded for the binder E26 (designed binder, Del 1-8 10Fn3 clone; Flag-tagged in vitro translated protein in the radioactive assay, His6-tagged E. coli protein in BIAcore and cell assays; tags left out) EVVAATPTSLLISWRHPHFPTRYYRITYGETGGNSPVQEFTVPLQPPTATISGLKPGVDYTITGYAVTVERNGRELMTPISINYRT ?
Ans. 14
